Reported Kd values for a set of binders
target: T1, catalytic subunit of human protein kinase CK2 (human, UniProt P68400 1-391, NT-647 dye (NanoTemper Protein Labeling Kit RED), in the MST experiments only); assay: MST; hCK2α labelled with NT-647 dye, 50 nM; ligand 100 nM-10 mM; thermophoresis with temperature jump; global fit of three independent pseudo-titrations; details: both partners purified
T1 construct: catalytic subunit (alpha) of human protein kinase CK2; The His tag is named only for the pull-down (immobilised on cobalt resin); also called hCK2α; CK2α
T1 sequence (P68400 whole entry): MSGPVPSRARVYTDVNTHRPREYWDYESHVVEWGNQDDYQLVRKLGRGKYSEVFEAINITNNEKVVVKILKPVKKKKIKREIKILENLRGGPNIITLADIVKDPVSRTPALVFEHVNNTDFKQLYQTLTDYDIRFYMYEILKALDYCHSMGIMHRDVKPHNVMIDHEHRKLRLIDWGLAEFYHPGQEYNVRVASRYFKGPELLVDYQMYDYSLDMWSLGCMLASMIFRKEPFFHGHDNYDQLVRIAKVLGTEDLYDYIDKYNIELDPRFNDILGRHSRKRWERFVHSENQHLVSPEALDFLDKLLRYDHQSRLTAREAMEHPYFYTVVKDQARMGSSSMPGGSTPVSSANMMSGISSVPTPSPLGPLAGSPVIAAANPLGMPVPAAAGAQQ
Where no end group is shown, it is not given here.
OUTCOME_MEASURE: Kd (mM)

binder="RRRDDDSDDD (The supplier is named in the methods of the kinase assay; also called CK2 substrate peptide; source: bought: Biaffin GmbH & Co KG)" unit_symbol=mM value_measured=2.1
binder="KESEEE-NH2 (source: synthetic peptide (solid-phase synthesis, purified by HPLC)) [KESEEE-NH2]" unit_symbol=mM value_measured=0.39
